target: Tyrosyl-tRNA synthetase, putative (Trypanosoma cruzi (strain CL Brener)); experiment: Trypanosoma cruzi tyrosyl tRNA synthetase (TcYRS) _High Tyrosine SOP; type: functional; parameters: scale not given: in the data most compounds retested in dose-response had high values; conditions: 30 µM
observable: Percent Effect (%)

>>> quantitative_readout("Cc1ccc(-c2ncc(C(=O)NCCNc3ncccn3)s2)c(C)c1")
5.42
>>> quantitative_readout("Cc1noc(CN2CCN(CC(C)O)CC2)n1 (centres undefined)")
6.93
>>> quantitative_readout("N#Cc1ccc(C(=O)N2CCn3c(Cn4cccn4)cnc3C2)cc1")
2.08
>>> quantitative_readout("Fc1ccc(CN2CCCC(c3nnc(-c4cnccn4)o3)C2)cc1F (centres undefined)")
6.45
>>> quantitative_readout("Cn1c(Cn2cccn2)nnc1C1CCCN(c2ccncc2)C1 (centres undefined)")
6.88
>>> quantitative_readout("CCc1noc(C)c1C(=O)N1CCCC1c1c(C)nn(C)c1OC (centres undefined)")
1.48
>>> quantitative_readout("CC1CCN(CCNC(=O)c2ccccc2N2CCOCC2)CC1")
13.5
>>> quantitative_readout("COc1ncccc1NC(=O)C1CC(=O)N(Cc2ccccn2)C1 (centres undefined)")
4.25
>>> quantitative_readout("Cc1cnn(CCNCc2ccc(OCc3csc(C)n3)cc2)c1")
3.83
>>> quantitative_readout("Cc1cnn(CC2CCCCN2Cc2nc(N)c3ccccc3n2)c1 (centres undefined)")
14.3
>>> quantitative_readout("Cc1nc(C2CCCN(C(=O)CCCn3cccn3)C2)no1 (centres undefined)")
6.8
>>> quantitative_readout("Cc1nc(C)n(CC2CCCN2CC(=O)Nc2ccnn2C(C)C)n1 (centres undefined)")
5.42
>>> quantitative_readout("O=S(=O)(C1CC1)N1CCC2(COCc3cnc(N4CCOCC4)nc32)C1 (centres undefined)")
1.06
>>> quantitative_readout("CC(=O)N1CCCCC1c1cc(C(=O)N2CCOCC2)[nH]n1 (centres undefined)")
5.38
>>> quantitative_readout("COC(CNC(=O)N1CCC(n2cncn2)CC1)c1ccccc1 (centres undefined)")
2.08
>>> quantitative_readout("Cn1cc(C2CCCN2Cc2csc(C(C)(C)C)n2)cn1 (centres undefined)")
8.37
>>> quantitative_readout("CC(=O)N(Cc1ncc(C)o1)C1CCN(CCNC2CCCCC2)C1 (centres undefined)")
-2.15
>>> quantitative_readout("CCc1cc(N[C@H]2CC[C@H](O)CC2)n2nc(C)c(C)c2n1")
-9.47
>>> quantitative_readout("CCC(O)CN1CCN(C(=O)c2ccnc(N(C)C)c2)CC1 (centres undefined)")
1.59
>>> quantitative_readout("O=C(Nc1cnn(CCN2CCOCC2)c1)c1cc(F)ccc1F")
4.41
>>> quantitative_readout("O=C1N(Cc2ccccc2F)CCCC12CCN(C1CCSCC1)C2 (centres undefined)")
8.2
>>> quantitative_readout("Cn1cc(CN2CC3(CCN(C(=O)c4ccoc4)C3)C2)cn1")
-1.04
>>> quantitative_readout("Cc1cc(CNC(=O)NC(C)c2ccncc2)no1 (centres undefined)")
2.15
>>> quantitative_readout("CNC(=O)CCc1cc(C)nc(C2CCCN2)c1 (centres undefined)")
2.15
>>> quantitative_readout("O=C(CCc1nccs1)N1CCCC(N2CCNC2=O)C1 (centres undefined)")
4.3
>>> quantitative_readout("O=C(c1cc(Cl)cc(Cl)c1)N1CCN(c2nccs2)CC1")
4.3
>>> quantitative_readout("c1cnnc(N2CCCC(NCc3nc(C4CC4)no3)C2)c1 (centres undefined)")
16.1
>>> quantitative_readout("Cc1noc([C@@H]2CC[C@@H]3[C@@H](CCN3S(=O)(=O)c3cccnc3)O2)n1")
6.93
>>> quantitative_readout("Cc1nonc1C(=O)N1CCCC(c2ncncc2-c2ccncc2)C1 (centres undefined)")
5.32
>>> quantitative_readout("Cc1ccccc1CSCCn1nc2ccccn2c1=O")
4.76
>>> quantitative_readout("CC(C)c1n[nH]c(C2CN(C(=O)C3=COCC3)CCO2)n1 (centres undefined)")
2.46
>>> quantitative_readout("COc1ccc(CN2CCC(O)CC2)c(OC)c1")
2.65
>>> quantitative_readout("Cc1cc(C)cc(NC(=O)CN2CCCC(n3cncn3)C2)c1 (centres undefined)")
2.97
>>> quantitative_readout("COc1cccc(CCC2CCCN(C(=O)c3n[nH]c4c3CCC4)C2)c1 (centres undefined)")
11.1
>>> quantitative_readout("CCC(C)N(C)CCNC(=O)NCc1cccc(-n2cncn2)c1 (centres undefined)")
2.15
>>> quantitative_readout("Cc1ncsc1C(=O)Nc1cccc(OCC(F)F)n1")
3.19
>>> quantitative_readout("O=C(CN1CCC(c2cccc(F)c2)C1)NCc1ccco1 (centres undefined)")
7.35
>>> quantitative_readout("CC(=O)N1CCC(C(=O)NCCN2CCC(C)CC2)CC1")
4.21
>>> quantitative_readout("COc1c(C(=O)NCc2cccnc2)nnn1Cc1ccc(C)cc1")
1.06
>>> quantitative_readout("COCC1c2c(cnn2CC2CCOCC2)CCN1Cc1ccoc1 (centres undefined)")
10.9
>>> quantitative_readout("COc1cccc(-n2c(C)cc(C(=O)O)c2C)c1")
-0.493
>>> quantitative_readout("Cc1ccc(C2CCCCCN2Cc2cn(C)nc2C)cc1 (centres undefined)")
8.47
>>> quantitative_readout("CC1CCN(S(=O)(=O)NCC2CCOc3ccccc3C2)CC1 (centres undefined)")
0
>>> quantitative_readout("CC(C)c1nn(C)c(N(C)C)c1CNCc1ccccc1CN(C)C")
0.49
>>> quantitative_readout("Cc1occc1C(=O)N1CCC2(CC1)NC(=O)CC2c1cnn(C)c1 (centres undefined)")
0
>>> quantitative_readout("O=C(c1cccnc1)N1C[C@@H]2CC[C@H](C1)N(Cc1cccc(Cl)c1F)C2")
9.68
>>> quantitative_readout("COc1c(CNC(c2nccn2C)C(C)C)c(C)nn1C (centres undefined)")
6.37
>>> quantitative_readout("COCC(NC(=O)c1ccc[nH]1)c1cccc(C(F)(F)F)c1 (centres undefined)")
0
>>> quantitative_readout("CCOC(=O)NC(CNC(=O)c1ncccn1)CC(C)C (centres undefined)")
4.3
